Sourced from patent US20240166738A1

Biological target: GST-TMEM106B (truncated, comprising amino acids 122-210 of SEQ ID NO:1) (Homo sapiens, UniProt Q9NUM4)
Sequence (Q9NUM4 122-210): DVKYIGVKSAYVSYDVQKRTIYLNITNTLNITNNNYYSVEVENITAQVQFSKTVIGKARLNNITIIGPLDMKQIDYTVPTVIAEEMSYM
Experiment: Pre-mix epitope binning of anti-TMEM106B antibodies (Carterra / Lake Pharma)
Assay type: binding
Set-up: key: Bin 1: competes for binding to the same or overlapping TMEM106B region as the TM1, TM17, TM22, TM26, TM79, and/or TM82 antibodies; Bin 2: competes for binding to the same or overlapping TMEM106B region as the TM3, TM9, TM10, TM11, TM12, TM13, TM18, TM19, TM21, TM24, TM25, TM32, TM35, TM37, TM42, TM45, TM48, TM54, TM59, TM60, TM61, and/or TM76 antibodies; Bin 3: competes for binding to the same or overlapping TMEM106B region as the TM7, TM15, TM83, and/or TM84 antibodies; Bin 4: competes for binding to the same or overlapping TMEM106B region as the TMS, TM28, TM29, TM30, TM63, TM64, TM72, TM78, TM80, TM86, and/or TM88 antibodies; Bin 5: does not bind to a truncated TMEM106B comprising amino acids 122-210 of SEQ ID NO:1
Settings: competition for binding to truncated GST-TMEM106B (amino acids 122-210)
MEASUREMENT_TYPE: epitope bin

>>> result("TM-28: anti-TMEM106B monoclonal antibody; CDR-H1-3 SEQ ID NO: 8, 59, 102; CDR-L1-3 SEQ ID NO: 142, 166, 190 (antibody, V domains shown) VH: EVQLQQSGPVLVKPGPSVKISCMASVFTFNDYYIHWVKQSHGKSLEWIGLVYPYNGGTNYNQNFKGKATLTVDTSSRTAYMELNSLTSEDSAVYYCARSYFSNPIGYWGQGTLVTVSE VL: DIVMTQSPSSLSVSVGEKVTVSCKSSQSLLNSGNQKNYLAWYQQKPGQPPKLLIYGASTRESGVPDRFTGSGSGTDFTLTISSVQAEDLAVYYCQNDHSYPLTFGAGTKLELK")
"Bin 4"
>>> result("TM-9: anti-TMEM106B monoclonal antibody; CDR-H1-3 SEQ ID NO: 10, 43, 86; CDR-L1-3 SEQ ID NO: 122, 168, 186 (antibody, V domains shown) VH: EVQLVESGGDLVKPGGSLKLSCVASGFTFSGYGMSWVRQTPDKRLEWVATISSGSFYIYYPDSVKGRLTVSRDNAKNTLYLQMSSLKSEDTAIYYCARQNFYYGCEDYWGQGTTLTVSS VL: DIVMTQAAFSNPVTLGTSASISCRSSKSLLHSNGITYLYWYLQKPGQSPQLLIYQMSNLASGVPNRFSSSGSGTDFTLRISRVEAEDVGVYYCAQNLELPWTFGGGTKLEIK")
"Bin 2"
